Experiment: chemical genetic growth profiling, strain panel (AID 1159580);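 note: tested at 20 µM; growth read once vehicle control cultures reached saturation at 30 °C; 1 = growth at the plate median or of vehicle wells; lower values mean less growth of the strain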
Details: S. cerevisiae deletion strains, growth OD, locus YOR083W, strain WHI5, active compounds read low
In all, about 5,500 compounds went through this assay and about 2,000 (36%) were called active. Roughly 18% stayed inconclusive and do not appear here. Some of the results follow.
Binary label based on normalized growth with cut-off 1: below gives label 1, not below gives label 0.

Please review the following examples before continuing.
>  <MOLECULE>
Cc1onc(-c2ccccc2)c1C(=O)NC1C(=O)N2[C@@H]1SC(C)(C)[C@@H]2C(=O)O (stereo partly specified)

>  <ASSIGNED_LABEL>
label 0

$$$$
>  <MOLECULE>
Cc1onc(-c2c(Cl)cccc2Cl)c1C(=O)N[C@@H]1C(=O)N2[C@@H]1SC(C)(C)[C@@H]2C(=O)O

>  <ASSIGNED_LABEL>
label 1

$$$$
>  <MOLECULE>
Cc1onc(-c2ccccc2Cl)c1C(=O)N[C@@H]1C(=O)N2[C@@H]1SC(C)(C)[C@@H]2C(=O)O

>  <ASSIGNED_LABEL>
label 0

$$$$
>  <MOLECULE>
CC(=O)Oc1cccc2c1C(=O)c1c(OC(C)=O)cc(C(=O)O)cc1C2=O

>  <ASSIGNED_LABEL>
label 1

$$$$

# next molecule below
Is normalized growth of CC1=C(O)C(=O)C=C2C1=CC=C1[C@@]2(C)CC[C@@]2(C)[C@@H]3C[C@](C)(C(=O)O)CC[C@]3(C)CC[C@]12C strictly below 1?
label 1

----------
Assay: chemical genetic growth profiling, strain panel (AID 1159580);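 note: tested at 20 µM; growth read once vehicle control cultures reached saturation at 30 °C; 1 = growth at the plate median or of vehicle wells; lower values mean less growth of the strain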
Conditions: S. cerevisiae strains, growth OD, strain wild type, active compounds read low
Hit rate of the full screen: of about 5,500 compounds, about 2,000 (36%) were called active. Not shown: some 18% with an inconclusive outcome. Some of the results follow.
PARAMETER: normalized growth
Could you respond with only the numeric value?

As a guide, the following entries are already answered.
>  <MOLECULE>
COC(=O)c1scc(S(=O)(=O)C(C)C)c1N/N=C(/C#N)C(=O)c1ccccc1

>  <ENDPOINT_VALUE>
0.967

$$$$
>  <MOLECULE>
CC(=O)[O][Hg][c]1ccccc1

>  <ENDPOINT_VALUE>
0.0493

$$$$
>  <MOLECULE>
NC[C@H]1O[C@H](O[C@H]2C(O[C@@H]3O[C@H](CO)[C@@H](O)[C@H]3O)[C@@H](O)[C@H](N)C[C@@H]2N)[C@H](N)[C@@H](O)[C@@H]1O (stereo partly drawn)

>  <ENDPOINT_VALUE>
1

$$$$
>  <MOLECULE>
CC(=O)NC(=O)/C(C#N)=C/N1CCN(Cc2ccccc2)CC1

>  <ENDPOINT_VALUE>
0.974

$$$$
>  <MOLECULE>
CC(C)(C)c1cc(-c2cc(C(F)(F)F)[nH]n2)c2c(c1)C(C)(C)CC2

>  <ENDPOINT_VALUE>
1.01

$$$$
>  <MOLECULE>
COc1cccc(Nc2nc3ccccc3s2)c1

>  <ENDPOINT_VALUE>
0.598

$$$$
>  <MOLECULE>
CC(C)S(=O)(=O)c1csc(C(N)=O)c1Cl

>  <ENDPOINT_VALUE>
1.02

$$$$
>  <MOLECULE>
NC(=O)NO

>  <ENDPOINT_VALUE>
1

$$$$
>  <MOLECULE>
CN[C@@H]1[C@@H](O[C@H]2O[C@H](CO)[C@@H](N)[C@H](O)[C@H]2O)O[C@H]2C[C@@H](N)[C@H](O[C@H]3[C@H](O)[C@@H](O)[C@H](N)C[C@@H]3N)O[C@@H]2[C@@H]1O

>  <ENDPOINT_VALUE>
1.02

$$$$
>  <MOLECULE>
CCOc1cccc(C(=O)c2ccc(O)c(O)c2O)c1

>  <ENDPOINT_VALUE>
0.635

$$$$

// normalized growth lookup, key: CCCCCCCCCCCCCCCCCCOCC(O)CO (stereo not drawn)
0.995

Requested field: normalized growth. Item: CC(=O)NO
0.981

Recorded normalized growth for NS(=O)(=O)c1ccc(-n2ncc3ccccc3c2=O)cc1 , please?
1.01

----------
Assay: chemical genetic growth profiling, strain panel (AID 1159580);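 note: tested at 20 µM; growth read once vehicle control cultures reached saturation at 30 °C; 1 = growth at the plate median or of vehicle wells; lower values mean less growth of the strain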
Conditions: S. cerevisiae deletion strains, growth OD, locus YDR318W, strain mcm21, active compounds read low
The campaign covered roughly 5,500 compounds. About 2,000 (36%) were called active. Not shown: some 18% with an inconclusive outcome. The list shows a part of the results. Where a SMILES comes first, the peptide text is derived from it. Bridges are numbered along the chain shown (N, C = ends). Side-chain parts run from the residue outwards. [ ]: non-standard residue; d: D form. The star is where a group is joined. Octanoyl(6-Me) = CCC(C)CCCCC(=O)*; X1 = CCC(C)C(N)C1=NC(C(=O)*)CS1; Orn = NCCC[CH](N)C(=O)O; Dab = NCC[CH](N)C(=O)O
PARAMETER: normalized growth
Give the value as a plain number.

Would you please look over these solved cases?
>  <COMPOUND>
CC(=O)O[C@H]1CC[C@]2(C)C3CC(=O)[C@]4(C)C(C(C)=O)=CCC4C3CC[C@H]2C1 (some centres undefined)

>  <PARAMETER>
normalized growth

>  <ENDPOINT_VALUE>
0.988

$$$$
>  <COMPOUND>
NC[C@H]1O[C@H](O[C@H]2[C@H](O)[C@@H](O[C@H]3O[C@H](CO)[C@@H](O)[C@H](N)[C@H]3O)[C@H](N)C[C@@H]2N)[C@H](N)C[C@@H]1O

>  <PARAMETER>
normalized growth

>  <ENDPOINT_VALUE>
1.02

$$$$
>  <COMPOUND>
CC(=O)OC1CCC2(C)C3CC(=O)C4(C)C(CC5OC6(CCC(C)CO6)[C@@H](C)C54)C3CC[C@H]2C1 (some centres undefined)

>  <PARAMETER>
normalized growth

>  <ENDPOINT_VALUE>
0.996

$$$$
>  <COMPOUND>
CCC(C)C(N)C1=NC(C(=O)NC(CC(C)C)C(=O)NC(CCC(=O)O)C(=O)NC(C(=O)NCCCCC2NC(=O)C(CC(N)=O)NC(=O)C(CC(=O)O)NC(=O)C(Cc3cnc[nH]3)NC(=O)C(Cc3ccccc3)NC(=O)C(C(C)CC)NC(=O)C(CCCN)NC2=O)C(C)CC)CS1 (stereo not drawn) (cyclo(DNK([Ile-Glu-Leu-X1])[Orn]IFH); configuration not given here)

>  <PARAMETER>
normalized growth

>  <ENDPOINT_VALUE>
0.989

$$$$
>  <COMPOUND>
CC(=O)[C@@]1(O)CCC2C3CCC4=CC(=O)CC[C@]4(C)C3CC[C@@]21C (some centres undefined)

>  <PARAMETER>
normalized growth

>  <ENDPOINT_VALUE>
0.99

$$$$
>  <COMPOUND>
CCC(C)CCCCC(=O)NC(CCN)C(=O)NC(C(=O)NC(CCN)C(=O)NC1CCNC(=O)C(C(C)O)NC(=O)C(CCN)NC(=O)C(CCN)NC(=O)C(CC(C)C)NC(=O)C(Cc2ccccc2)NC(=O)C(CCN)NC1=O)C(C)O (centres undefined) ({Octanoyl(6-Me)}-[Dab]T[Dab][Dab][Dab]FL[Dab][Dab]T; lactam 4-C; configuration not given here)

>  <PARAMETER>
normalized growth

>  <ENDPOINT_VALUE>
1.01

$$$$

Given the entry Cc1cc(=O)n(-c2ccccc2)n1C , report its measured normalized growth.
0.989

For CC(C)CC1NC(=O)C(CCCN)NC(=O)C(C(C)C)NC(=O)C2CCCN2C(=O)C(Cc2ccccc2)NC(=O)C(CC(C)C)NC(=O)C(CCCN)NC(=O)C(C(C)C)NC(=O)C2CCCN2C(=O)C(Cc2ccccc2)NC1=O (centres undefined) (cyclo(FPV[Orn]LFPV[Orn]L); configuration not given here) , what is its reported normalized growth?
1.01

Return reported normalized growth; argument: NCC1OC(OC2C(CO)OC(OC3C(O)C(N)CC(N)C3OC3OC(CO)C(O)CC3N)C2O)C(N)C(O)C1OC1OC(CO)C(O)C(O)C1O (centres undefined)
0.997

----------
Each entry below carries its reported normalized growth.
Assay: chemical genetic growth profiling, strain panel (AID 1159580);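 note: tested at 20 µM; growth read once vehicle control cultures reached saturation at 30 °C; 1 = growth at the plate median or of vehicle wells; lower values mean less growth of the strain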
Settings: S. cerevisiae deletion strains, growth OD, locus YBR171W, strain sec66, active compounds read low
Among all 5,500 compounds or so, about 2,000 (36%) were called active. About 18% were inconclusive and are not listed. The list shows a part of the results.
Give a plain numeric answer without units written out.

>  <MOLECULE>
CC1(C)C(=O)[C@@H]2C[C@@]3(O)C4=CC(=O)O[C@@H](c5ccoc5)[C@]4(C)CCC3[C@@](C)(C2=O)[C@H]1CC(=O)O (stereo partly drawn)

>  <normalized growth>
1.01

$$$$
>  <MOLECULE>
CN(C)CCc1c[nH]c2ccc(C[C@H]3COC(=O)N3)cc12

>  <normalized growth>
1.02

$$$$

Okay, now this molecule:
Look at this molecule and give its reported normalized growth. CN(C)CCc1c[nH]c2ccc(CS(=O)(=O)N3CCCC3)cc12
1
